Data credit: paper PMC10469817

# Experiment summary: DDI study: pharmacokinetics of zanubrutinib in rats alone or with fluconazole / isavuconazole
# Type: in vivo, Sprague–Dawley (SD) rats
# Condition set: Sprague-Dawley, rat, plasma, po, 30 mg/kg, rats, zanubrutinib 30 mg/kg gavage; Group B: 20 mg/kg isavuconazole; n = 6, mean ± SD
Observation type: AUC(0-t) (ng·h/mL)
The reply should be a number in ng·h/mL, with the unit left off.

## Task Returns the measured AUC(0-t) for the input molecule. Input: `C=CC(=O)N1CCC([C@@H]2CCNc3c(C(N)=O)c(-c4ccc(Oc5ccccc5)cc4)nn32)CC1`
## Result 1270

---

# Experiment summary: DDI study: pharmacokinetics of zanubrutinib in rats alone or with fluconazole / isavuconazole
# Format: in vivo, Sprague–Dawley (SD) rats
# Condition set: Sprague-Dawley, rat, plasma, po, 30 mg/kg, rats, zanubrutinib 30 mg/kg gavage; Group A: the control group (0.5% CMC-Na); n = 6, mean ± SD
Observation type: Tmax (h)
The answer is to be given in h; state only the numeric part.

## Task Report Tmax for `C=CC(=O)N1CCC([C@@H]2CCNc3c(C(N)=O)c(-c4ccc(Oc5ccccc5)cc4)nn32)CC1` please.
## Result 1.83

---

# Experiment summary: DDI study: pharmacokinetics of zanubrutinib in rats alone or with fluconazole / isavuconazole
# Format: in vivo, Sprague–Dawley (SD) rats
# Condition set: Sprague-Dawley, rat, plasma, po, 30 mg/kg, rats, zanubrutinib 30 mg/kg gavage; Group C: 20 mg/kg fluconazole; n = 6, mean ± SD; read-out: Vz/F
# Excerpt: The separation procedures were processed using a Shim-pack velox C18 column (2.1 × 50 mm, 2.7 μm) at 40 degrees Celsius. The mobile phases were 0.1% formic acid-water and methanol. […] Triple quadrupole mass spectrometry (Shimadzu Corp., Tokyo, Japan) was utilized for sample detection. […] The first and second signal strength product ions were applied to quantitation and qualification, respectively, to ensure the specificity of the detection. […]
Observation type: Vd/F (L/kg)
# value in L/kg; strip the unit string

## Task Given `C=CC(=O)N1CCC([C@@H]2CCNc3c(C(N)=O)c(-c4ccc(Oc5ccccc5)cc4)nn32)CC1` , state its recorded Vd/F.
## Result 34.8

---

# Experiment summary: DDI study: pharmacokinetics of zanubrutinib in rats alone or with fluconazole / isavuconazole
# Type: in vivo, Sprague–Dawley (SD) rats
# Condition set: Sprague-Dawley, rat, plasma, po, 30 mg/kg, rats, zanubrutinib 30 mg/kg gavage; Group B: 20 mg/kg isavuconazole; n = 6, mean ± SD; read-out: MRT(0−t)
Observation type: MRT last (h)
Supply the numeric figure in h, leaving out any unit text.

## Task Consider the compound shown here: C=CC(=O)N1CCC([C@@H]2CCNc3c(C(N)=O)c(-c4ccc(Oc5ccccc5)cc4)nn32)CC1 [zanubrutinib] What is its recorded MRT last?
## Result 2.76

---

# Experiment summary: DDI study: pharmacokinetics of zanubrutinib in rats alone or with fluconazole / isavuconazole
# Assay type: in vivo, Sprague–Dawley (SD) rats
# Condition set: Sprague-Dawley, rat, plasma, po, 30 mg/kg, rats, zanubrutinib 30 mg/kg gavage; Group A: the control group (0.5% CMC-Na); n = 6, mean ± SD
Observation type: AUC(0-t) (ng·h/mL)
State the answer as a number, implicitly in ng·h/mL.

## Task Look at this compound and give its reported AUC(0-t). C=CC(=O)N1CCC([C@@H]2CCNc3c(C(N)=O)c(-c4ccc(Oc5ccccc5)cc4)nn32)CC1 [zanubrutinib]
## Result 1080
